Would you kindly list MIC (minimal inhibitory concentration) of haemagglutination by PHL for each of these compounds?
Target: PHL (Photorhabdus asymbiotica)
Sequence (C7BLE4 1-369): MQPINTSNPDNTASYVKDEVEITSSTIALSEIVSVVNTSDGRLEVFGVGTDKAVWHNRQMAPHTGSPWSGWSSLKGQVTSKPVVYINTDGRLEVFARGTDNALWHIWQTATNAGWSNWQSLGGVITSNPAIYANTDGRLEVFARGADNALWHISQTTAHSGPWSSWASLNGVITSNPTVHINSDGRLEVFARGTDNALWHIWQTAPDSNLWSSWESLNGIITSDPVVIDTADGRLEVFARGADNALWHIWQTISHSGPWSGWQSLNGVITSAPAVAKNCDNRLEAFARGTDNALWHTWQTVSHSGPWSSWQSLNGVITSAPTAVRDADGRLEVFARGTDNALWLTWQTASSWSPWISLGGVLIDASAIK
Experiment: Haemagglutination inhibition assay with PHL
Type: cell-based
Settings: microscopy
Give the number; µM is assumed, so skip it.

# get_value(readout='MIC (minimal inhibitory concentration) of haemagglutination by PHL', item= CC(=O)N[C@H]1[C@@H](O[C@H]2[C@@H](O)[C@@H](CO)O[C@@H](O)[C@@H]2O[C@@H]2O[C@@H](C)[C@@H](O)[C@@H](O)[C@@H]2O)O[C@H](CO)[C@H](O)[C@@H]1O [BGA trisaccharide] )
2500

# get_value(readout='MIC (minimal inhibitory concentration) of haemagglutination by PHL', item= `C[C@H](O)[C@@H](O)[C@@H](O)[C@H](O)C=O` )
3125

# get_value(readout='MIC (minimal inhibitory concentration) of haemagglutination by PHL', item= CC(=O)N[C@H]1C(O)O[C@H](CO)[C@@H](O)[C@@H]1O[C@@H]1O[C@@H](C)[C@@H](O)[C@@H](O)[C@@H]1O (stereo partly drawn) )
2500

# get_value(readout='MIC (minimal inhibitory concentration) of haemagglutination by PHL', item= CC(=O)N[C@H]1C(O)O[C@H](CO)[C@@H](O[C@@H]2O[C@@H](C)[C@@H](O)[C@@H](O)[C@@H]2O)[C@@H]1O (stereo partly drawn) )
2500

# get_value(readout='MIC (minimal inhibitory concentration) of haemagglutination by PHL', item= CO[C@H]1O[C@@H](C)[C@@H](O)[C@@H](O)[C@@H]1O [Me-β-L-Fuc, methyl-β-L-fucopyranoside] )
6250

# get_value(readout='MIC (minimal inhibitory concentration) of haemagglutination by PHL', item= CO[C@@H]1O[C@@H](C)[C@@H](O)[C@@H](O)[C@@H]1O [Me-α-L-Fuc, Methyl-α-L-fucopyranoside] )
390

----------
Target: PHL (Photorhabdus asymbiotica)
Experiment: Isothermal titration calorimetry (ITC)
Type: binding
Details: ITC at 25°C, stoichiometry fixed to 4; read-out: KD (n = 4)
pKd: −log10 of the molar value.
Is pKd at least 3? Then 1. If not, -1.

Item CC(=O)N[C@H]1[C@@H](O[C@H]2[C@@H](O)[C@@H](CO)O[C@@H](O)[C@@H]2O[C@@H]2O[C@@H](C)[C@@H](O)[C@@H](O)[C@@H]2O)O[C@H](CO)[C@H](O)[C@@H]1O [BGA trisaccharide] with pKd of 3 or above?
-1

Item CC(=O)N[C@H]1C(O)O[C@H](CO)[C@@H](O)[C@@H]1O[C@@H]1O[C@@H](C)[C@@H](O)[C@@H](O)[C@@H]1O (stereo partly drawn) with pKd of 3 or above?
-1

Item OC[C@H]1OC(O)[C@H](O)[C@@H](O)[C@@H]1O (stereo partly drawn) with pKd of 3 or above?
-1

Item `C[C@H](O)[C@@H](O)[C@@H](O)[C@H](O)C=O` with pKd of 3 or above?
-1

Item CC(=O)N[C@H]1C(O)O[C@H](CO)[C@@H](O[C@@H]2O[C@H](CO)[C@H](O)[C@H](O)[C@H]2O[C@@H]2O[C@@H](C)[C@@H](O)[C@@H](O)[C@@H]2O)[C@@H]1O (stereo partly drawn) [BGH trisaccharide] with pKd of 3 or above?
-1

Item C[C@@H]1O[C@@H](O[C@H]2C(O)O[C@H](CO)[C@H](O)[C@@H]2O[C@H]2O[C@H](CO)[C@H](O)[C@H](O)[C@H]2O)[C@@H](O)[C@H](O)[C@@H]1O (stereo partly drawn) [BGB trisaccharide] with pKd of 3 or above?
1
